ASSAY TEXT: in vitro
Format: cell-based
MEASUREMENT PARAMETERS: human
OBSERVATION TYPE: CC50 at 5 days

In [3]: df
Out[3]:
                              line_notation  assay_result
0  N#Cc1cc2[nH]c3ccccc3c2n(-c2ccc([N+](=O)[O-])cc2)c1=O     > 32.4 µM

From here, focus on the item given below.
[in] Tell me its CC50 at 5 days given Cn1c2ccccc2c2c1cc(C#N)c(=O)n2-c1ccc([N+](=O)[O-])cc1 as the entry.
[out] > 32.4 µM
